measurementTarget: T1, IL-2 receptor βγ complex (human, UniProt P14784 27-551; P31785 23-369)
T1 sequence (looked up) 1: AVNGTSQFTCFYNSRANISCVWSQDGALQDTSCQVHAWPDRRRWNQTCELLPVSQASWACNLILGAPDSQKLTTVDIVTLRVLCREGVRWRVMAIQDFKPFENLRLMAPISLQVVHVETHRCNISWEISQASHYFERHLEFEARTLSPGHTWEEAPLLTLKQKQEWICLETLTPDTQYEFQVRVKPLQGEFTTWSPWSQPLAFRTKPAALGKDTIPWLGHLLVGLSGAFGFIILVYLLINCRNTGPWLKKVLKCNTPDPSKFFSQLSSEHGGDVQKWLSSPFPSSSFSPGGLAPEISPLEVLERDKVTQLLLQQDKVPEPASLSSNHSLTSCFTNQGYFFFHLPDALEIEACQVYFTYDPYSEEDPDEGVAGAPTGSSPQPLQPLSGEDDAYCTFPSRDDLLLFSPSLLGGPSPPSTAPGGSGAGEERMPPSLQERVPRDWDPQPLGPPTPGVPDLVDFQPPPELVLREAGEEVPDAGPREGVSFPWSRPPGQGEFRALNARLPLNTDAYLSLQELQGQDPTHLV
T1 sequence (looked up) 2: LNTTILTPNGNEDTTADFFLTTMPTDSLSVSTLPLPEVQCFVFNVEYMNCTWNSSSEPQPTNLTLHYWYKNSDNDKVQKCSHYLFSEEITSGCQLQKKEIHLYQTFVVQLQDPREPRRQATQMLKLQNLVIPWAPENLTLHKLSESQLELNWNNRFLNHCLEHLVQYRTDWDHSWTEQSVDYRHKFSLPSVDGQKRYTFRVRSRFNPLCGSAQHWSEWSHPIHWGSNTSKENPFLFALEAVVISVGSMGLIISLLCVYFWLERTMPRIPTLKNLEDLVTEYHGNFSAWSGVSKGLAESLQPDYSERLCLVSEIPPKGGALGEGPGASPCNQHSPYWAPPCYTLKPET
methodNotes: cell-based or functional assay
Bridges are numbered along the chain shown (N, C = ends). Primed or numbered codes have the meaning given here. Side-chain parts run from the residue outwards. [ ]: non-standard residue; d: D form. 8x polyethylene glycol‑amino = O-(8x polyethylene glycol-amino)-tyrosine, SITE 45; 9x polyethylene glycol‑azido = O-(9x polyethylene glycol-azido)-tyrosine, SITE 42; Ygp(8) = Tyr, amino-capped PEG8 (O-(8x polyethylene glycol-amino)-tyrosine); Yn3(8) = Tyr, azide-capped PEG9 (O-(9x polyethylene glycol-azido)-tyrosine); Ygp = O-(8x polyethylene glycol-amino)-tyrosine (Tyr, amino-capped PEG8); Yn3 = O-(9x polyethylene glycol-azido)-tyrosine (Tyr, azide-capped PEG9); Ygp″ = O-(8x polyethylene glycol-amino)-tyrosine; Yn3″ = O-(9x polyethylene glycol-azido)-tyrosine; PEG4′ = 4x polyethylene glycol; hSer = N[C@@H](CCO)C(=O)O; Nle = CCCC[C@H](N)C(=O)O
measuredMetric: Average EC50, pSTAT5 Assay in NK cells (nM)
Kindly answer with a numeric value in nM, unit omitted.

See these solved cases before continuing.
binder: CMP-311, MMP2 cleaved molecule (ligand, also: m77 after MMP2 cleavage: Lys23 side-chain branch (cleavable peptide) cut, remnant not given here) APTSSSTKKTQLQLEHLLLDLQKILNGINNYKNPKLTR[Nle]L[hSer][Yn3]KF[Ygp][Nle]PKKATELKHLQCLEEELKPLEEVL[hSer]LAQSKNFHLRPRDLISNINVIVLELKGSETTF[hSer]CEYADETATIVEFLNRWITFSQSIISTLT
measuredMetric: Average EC50, pSTAT5 Assay in NK cells
recordedNumber: 0.073
--
binder: CMP-323 (ligand, not fully specified; ends and bridges not checked) LVGAPTSSSTKKTQLQLEHLLLDLQE([Arg-Gly-Arg])ILNGINNYKNPKLTR[Nle]L[hSer][Yn3″]KF[Ygp″][Nle]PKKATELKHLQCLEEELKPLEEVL[hSer]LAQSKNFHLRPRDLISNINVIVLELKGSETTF[hSer]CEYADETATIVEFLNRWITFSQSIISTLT
measuredMetric: Average EC50, pSTAT5 Assay in NK cells
recordedNumber: 0.13
--
binder: CMP-317 (ligand, bridge N-31; not fully specified (bridges); ends not checked) GSGSGSG[PEG4′]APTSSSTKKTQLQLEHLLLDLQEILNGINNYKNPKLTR[Nle]L[hSer][Yn3]KF[Ygp][Nle]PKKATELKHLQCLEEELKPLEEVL[hSer]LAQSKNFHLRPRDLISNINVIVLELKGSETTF[hSer]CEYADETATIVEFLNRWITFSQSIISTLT
measuredMetric: Average EC50, pSTAT5 Assay in NK cells
recordedNumber: 34.1
--
binder: CMP-314, uPa cleaved molecule (ligand, also: uPa cleavage product, not given here as a sequence, Lys23 side-chain attachment remnant unknown) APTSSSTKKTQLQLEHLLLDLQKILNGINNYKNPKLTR[Nle]L[hSer]Y(9x polyethylene glycol‑azido)KFY(8x polyethylene glycol‑amino)[Nle]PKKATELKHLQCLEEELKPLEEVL[hSer]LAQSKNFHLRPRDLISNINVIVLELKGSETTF[hSer]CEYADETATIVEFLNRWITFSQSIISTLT
measuredMetric: Average EC50, pSTAT5 Assay in NK cells
recordedNumber: 0.065

Next up:
Documented Average EC50, pSTAT5 Assay in NK cells of CMP-321, MMP2 cleaved molecule (ligand, lactam N-32; also: MMP2 cleaved, cleavage site and product not given here) SGRVQPLVDAPTSSSTKKTQLQLEHLLLDLQEILNGINNYKNPKLTR[Nle]L[hSer][Yn3(8)]KF[Ygp(8)][Nle]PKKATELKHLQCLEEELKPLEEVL[hSer]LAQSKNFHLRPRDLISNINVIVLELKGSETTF[hSer]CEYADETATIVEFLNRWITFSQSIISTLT : 2.94

Where these numbers come from: patent US20240376170A1
